Hey, just so you know, these numbers are from ChEMBL document CHEMBL5241134.

Target: Mucosa-associated lymphoid tissue lymphoma translocation protein 1 (Homo sapiens, UniProt Q9UDY8)
Sequence (Q9UDY8 whole entry): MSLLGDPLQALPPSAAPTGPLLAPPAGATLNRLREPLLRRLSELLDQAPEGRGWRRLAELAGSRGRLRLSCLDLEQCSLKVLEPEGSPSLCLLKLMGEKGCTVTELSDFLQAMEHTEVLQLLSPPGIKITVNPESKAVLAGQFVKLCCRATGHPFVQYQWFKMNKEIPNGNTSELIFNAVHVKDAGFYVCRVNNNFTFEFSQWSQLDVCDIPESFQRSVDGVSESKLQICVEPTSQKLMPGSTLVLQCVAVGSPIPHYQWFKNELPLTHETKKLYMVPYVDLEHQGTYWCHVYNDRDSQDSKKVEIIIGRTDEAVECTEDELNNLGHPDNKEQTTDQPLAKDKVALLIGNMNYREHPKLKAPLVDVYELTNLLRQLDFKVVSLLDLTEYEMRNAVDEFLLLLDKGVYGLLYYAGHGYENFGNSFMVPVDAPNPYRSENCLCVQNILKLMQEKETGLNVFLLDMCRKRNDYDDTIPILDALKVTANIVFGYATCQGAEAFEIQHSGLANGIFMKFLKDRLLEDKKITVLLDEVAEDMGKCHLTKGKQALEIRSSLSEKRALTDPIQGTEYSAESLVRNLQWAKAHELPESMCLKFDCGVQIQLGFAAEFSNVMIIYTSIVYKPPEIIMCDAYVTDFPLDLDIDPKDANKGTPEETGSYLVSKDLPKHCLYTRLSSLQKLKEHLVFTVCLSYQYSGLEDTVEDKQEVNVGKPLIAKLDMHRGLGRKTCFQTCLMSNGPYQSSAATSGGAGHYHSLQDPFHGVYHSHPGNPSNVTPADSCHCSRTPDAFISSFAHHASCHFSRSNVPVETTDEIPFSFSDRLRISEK
pIC50: −log10 of the molar value.
// label = satisfied if pIC50 is not less than 6, otherwise not satisfied

Asked: Reported pIC50 at or above 6? `CS(=O)(=O)/N=C(/NCc1cc(-c2ccc(Cl)cc2)n(-c2ccc(Cl)cc2)n1)NCC1CC1`
Given back: satisfied

Asked: Please check the record O=C(NCc1cc(-c2ccc(Cl)cc2)n(-c2ccc(Cl)cc2)n1)C(O)c1ccccc1 (stereo not given) and state if its pIC50 is at or above 6.
Given back: satisfied

Asked: Hello, I need to know if `CC(C)[C@H](N)C(=O)NCc1cc(-c2ccc(Cl)cc2)n(-c2ccc(Cl)cc2)n1` has measured pIC50 not below 6. Thanks!
Given back: not satisfied

Asked: Is pIC50 for `Cn1ccc(S(=O)(=O)/N=C(\N)NCc2cc(-c3ccc(Cl)cc3)n(-c3ccc(Cl)cc3)n2)n1` at or above 6?
Given back: satisfied

Asked: Record `O=C(CCc1ccccc1)NCc1cc(-c2ccc(Cl)cc2)n(-c2ccc(Cl)cc2)n1` ; criterion: pIC50 no lower than 6. Met?
Given back: satisfied
